These measurements were taken from ChEMBL document CHEMBL3880386.

- Protocol description: Growth inhibition of human NCI-H1792 cells at 1:10 molar ratio of compound in presence of N-{3-[3-cyclopropyl-5-(2-fluoro-4-iodo-phenylamino)-6,8-dimethyl- 2,4,7-trioxo-3,4,6,7-tetrahydro-2H-pyrido[4,3-d]pyrimidin-1-yl]phenyl}acetamide incubated for 72 hrs by Cell-titer-Glo reagent based assay
- Assay type: functional
- Condition info: NCI-H1792, 72 h
Metric name: pIC50
Friendly reminder that pIC50 comes from taking -log10 of the concentration in mol/L.

Give reported pIC50 value for Cn1ncc(Cl)c1-c1cc(C(=O)N[C@H](CN)Cc2cccc(F)c2)sc1Cl [AFURESERTIB]
6.43

* * *

- Protocol description: Growth inhibition of human HCC827 cells incubated for 72 hrs by Cell-titer-Glo reagent based assay
- Assay type: functional
- Condition info: HCC827, 72 h
Metric name: IC50

Report IC50 for Cn1ncc(Cl)c1-c1cc(C(=O)N[C@H](CN)Cc2cccc(F)c2)sc1Cl
> 8 µM

Return IC50 for the following compound: CC(=O)Nc1cccc(-n2c(=O)n(C3CC3)c(=O)c3c(Nc4ccc(I)cc4F)n(C)c(=O)c(C)c32)c1
> 1 µM

* * *

- Protocol description: Growth inhibition of human MV522 cells incubated for 72 hrs by Cell-titer-Glo reagent based assay
- Format: functional
- Condition info: MV522, 72 h
Please respond with reported IC50 for every item in the list.
Report as a plain number; the unit nM is understood.

Return the recorded IC50 value; entry: Cn1ncc(Cl)c1-c1cc(C(=O)N[C@H](CN)Cc2cccc(F)c2)sc1Cl
3040

For CC(=O)Nc1cccc(-n2c(=O)n(C3CC3)c(=O)c3c(Nc4ccc(I)cc4F)n(C)c(=O)c(C)c32)c1 , write its IC50.
2

* * *

- Protocol description: Growth inhibition of human HCC827 cells at 1:10 molar ratio of compound in presence of N-{(1S)-2-amino-1-[(3-fluorophenyl)methyl]ethyl}-5-chloro-4-(4-chloro-1-methyl-1H-pyrazol-5-yl)-2-thiophenecar- boxamide incubated for 72 hrs by Cell-titer-Glo reagent based assay
- Type: functional
- Condition info: HCC827, 72 h
Metric name: IC50 (µM)
Your answer should be a plain number; it is taken to be in µM.

Read off the recorded IC50 for CC(=O)Nc1cccc(-n2c(=O)n(C3CC3)c(=O)c3c(Nc4ccc(I)cc4F)n(C)c(=O)c(C)c32)c1 [TRAMETINIB]
0.04

* * *

- Protocol description: Growth inhibition of human NCI-H727 cells at 1:10 molar ratio of compound in presence of N-{3-[3-cyclopropyl-5-(2-fluoro-4-iodo-phenylamino)-6,8-dimethyl- 2,4,7-trioxo-3,4,6,7-tetrahydro-2H-pyrido[4,3-d]pyrimidin-1-yl]phenyl}acetamide incubated for 72 hrs by Cell-titer-Glo reagent based assay
- Type: functional
- Condition info: NCI-H727, 72 h
Metric name: pIC50
By convention, pIC50 is the negative base-10 log of a molar concentration.

Fill in reported pIC50 for this entry: Cn1ncc(Cl)c1-c1cc(C(=O)N[C@H](CN)Cc2cccc(F)c2)sc1Cl
7.72

* * *

- Protocol description: Growth inhibition of human NCI-H727 cells incubated for 72 hrs by Cell-titer-Glo reagent based assay
- Type: functional
- Condition info: NCI-H727, 72 h
Metric name: pIC50
Please note pIC50 is a logarithmic value: minus log10 of concentration in mol/L. Answer with that number alone.

Give the measured pIC50 for Cn1ncc(Cl)c1-c1cc(C(=O)N[C@H](CN)Cc2cccc(F)c2)sc1Cl
5.32

Fill in pIC50 for record CC(=O)Nc1cccc(-n2c(=O)n(C3CC3)c(=O)c3c(Nc4ccc(I)cc4F)n(C)c(=O)c(C)c32)c1
8.70

* * *

- Protocol description: Growth inhibition of human EFM19 cells incubated for 72 hrs by Cell-titer-Glo reagent based assay
- Type: functional
- Condition info: EFM-19, 72 h
Metric name: pIC50
Worth noting: pIC50 values are minus log10 of concentrations stated in mol/L.

Name the recorded pIC50 of the item Cn1ncc(Cl)c1-c1cc(C(=O)N[C@H](CN)Cc2cccc(F)c2)sc1Cl [AFURESERTIB] in your answer.
6.37

* * *

- Protocol description: Growth inhibition of human SW900 cells incubated for 72 hrs by Cell-titer-Glo reagent based assay
- Type: functional
- Condition info: SW900, 72 h
Metric name: IC50 (nM)
Give the value in nM but do not write nM after it.

Return IC50 for the following molecule: CC(=O)Nc1cccc(-n2c(=O)n(C3CC3)c(=O)c3c(Nc4ccc(I)cc4F)n(C)c(=O)c(C)c32)c1
127

* * *

- Protocol description: Growth inhibition of human KM12 cells at 1:10 molar ratio of compound in presence of N-{3-[3-cyclopropyl-5-(2-fluoro-4-iodo-phenylamino)-6,8-dimethyl- 2,4,7-trioxo-3,4,6,7-tetrahydro-2H-pyrido[4,3-d]pyrimidin-1-yl]phenyl}acetamide incubated for 72 hrs by Cell-titer-Glo reagent based assay
- Format: functional
- Condition info: KM12, 72 h
Metric name: pIC50
In plain terms, pIC50 is the concentration in mol/L turned into minus its base-10 logarithm.

// fetch pIC50 given entry Cn1ncc(Cl)c1-c1cc(C(=O)N[C@H](CN)Cc2cccc(F)c2)sc1Cl
6.98

* * *

- Protocol description: Growth inhibition of human A427 cells incubated for 72 hrs by Cell-titer-Glo reagent based assay
- Assay type: functional
- Condition info: A-427, 72 h
Metric name: pIC50
Convention used: pIC50 is expressed as -log10 of the molar concentration.

Please report the measured pIC50 for CC(=O)Nc1cccc(-n2c(=O)n(C3CC3)c(=O)c3c(Nc4ccc(I)cc4F)n(C)c(=O)c(C)c32)c1
7.66

* * *

- Protocol description: Growth inhibition of human SW1573 cells at 1:10 molar ratio of compound in presence of N-{(1S)-2-amino-1-[(3-fluorophenyl)methyl]ethyl}-5-chloro-4-(4-chloro-1-methyl-1H-pyrazol-5-yl)-2-thiophenecar- boxamide incubated for 72 hrs by Cell-titer-Glo reagent based assay
- Type: functional
- Condition info: SW1573, 72 h
Metric name: IC50 (nM)
Please reply with the bare figure in nM and do not write the unit itself.

Using known records, supply IC50 for CC(=O)Nc1cccc(-n2c(=O)n(C3CC3)c(=O)c3c(Nc4ccc(I)cc4F)n(C)c(=O)c(C)c32)c1
38

* * *

- Protocol description: Growth inhibition of human SW900 cells at 1:10 molar ratio of compound in presence of N-{(1S)-2-amino-1-[(3-fluorophenyl)methyl]ethyl}-5-chloro-4-(4-chloro-1-methyl-1H-pyrazol-5-yl)-2-thiophenecar- boxamide incubated for 72 hrs by Cell-titer-Glo reagent based assay
- Format: functional
- Condition info: SW900, 72 h
Metric name: pIC50
# reply with the number alone; pIC50 is -log10 of concentration in mol/L

Determine its reported pIC50: CC(=O)Nc1cccc(-n2c(=O)n(C3CC3)c(=O)c3c(Nc4ccc(I)cc4F)n(C)c(=O)c(C)c32)c1 [TRAMETINIB]
7.14
